These entries and their values trace back to patent US20190031665A1.

- TESTED SYSTEM: human tryptophan 2,3-dioxygenase (hTDO) (Homo sapiens)
- Construct: His tag (N); purchased BPS Bioscience, San Diego, Calif., USA; host or cells: E. coli
- Sequence (P48775 whole entry): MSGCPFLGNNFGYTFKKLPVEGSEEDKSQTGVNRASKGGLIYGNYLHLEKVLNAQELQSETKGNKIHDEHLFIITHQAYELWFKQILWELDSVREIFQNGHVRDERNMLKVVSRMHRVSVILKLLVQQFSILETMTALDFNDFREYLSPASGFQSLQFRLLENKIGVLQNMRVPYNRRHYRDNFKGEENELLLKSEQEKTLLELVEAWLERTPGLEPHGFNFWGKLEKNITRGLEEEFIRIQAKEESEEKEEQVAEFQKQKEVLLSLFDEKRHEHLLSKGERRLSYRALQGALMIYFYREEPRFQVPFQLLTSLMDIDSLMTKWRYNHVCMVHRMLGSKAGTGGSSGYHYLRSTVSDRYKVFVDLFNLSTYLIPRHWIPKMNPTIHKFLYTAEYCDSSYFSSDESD
- PROTOCOL DETAILS: In-vitro human tryptophan 2,3-dioxygenase (TDO) enzyme assay
- Format: biochemical
- EXPERIMENTAL SETUP: hTDO enzyme at 1.0 μM concentration
- From the text: In the in-vitro human tryptophan 2,3-dioxygenase (hTDO) enzyme assay for screening inhibitor compounds, hTDO with an N-terminal histidine tag expressed and purified from E. coli (BPS Bioscience, San Diego, Calif., USA) was used. All other materials were procured from Sigma-Aldrich, St. Louis, Mo., USA. […]
PARAMETER: inhibition at 1 µM

input: Form field: reported inhibition at 1 µM of COC(=O)c1cccc(C(=O)CC2C(c3ccccc3)=C(C)c3cncn32)c1 (stereo not shown)
output: ≥ 50%

input: Form field: reported inhibition at 1 µM of CC1=C(c2ccccc2)C(CC(=O)c2ccc(-c3ccsc3)cc2)n2cncc21 (stereo not shown)
output: ≤ 50%

input: Form field: reported inhibition at 1 µM of CC1=C(c2ccccc2)C(CC(=O)C2CCCN2C(=O)c2ccccc2)n2cncc21 (stereo not shown)
output: ≤ 50%

input: Form field: reported inhibition at 1 µM of CCOC(=O)N1CCC(C(O)CC2C(c3ccccc3)=C(C)c3cncn32)CC1 (stereo not shown)
output: ≤ 50%
